The origin of these recorded values is BindingDB's records for doi:10.7270/Q2TX3CTT.

Could you please report measured pEC50 for the items listed next?
target: Glycogen synthase kinase-3 beta (Homo sapiens, UniProt P49841); test: concentration-response blocking of human GSK3B – biochemical, luminescence, cell-free homogeneous, retest, dose response (AID 434954)
Sequence (P49841 whole entry): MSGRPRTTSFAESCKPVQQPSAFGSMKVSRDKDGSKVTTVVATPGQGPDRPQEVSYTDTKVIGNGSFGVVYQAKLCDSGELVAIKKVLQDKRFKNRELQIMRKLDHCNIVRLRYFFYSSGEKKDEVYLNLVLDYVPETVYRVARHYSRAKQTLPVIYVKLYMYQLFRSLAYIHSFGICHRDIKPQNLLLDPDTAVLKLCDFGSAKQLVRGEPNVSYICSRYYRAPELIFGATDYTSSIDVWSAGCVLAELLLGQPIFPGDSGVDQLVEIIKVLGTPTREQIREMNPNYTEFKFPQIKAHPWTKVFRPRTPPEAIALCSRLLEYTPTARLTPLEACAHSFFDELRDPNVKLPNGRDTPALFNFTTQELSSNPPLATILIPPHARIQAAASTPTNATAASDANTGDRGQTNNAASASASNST
pEC50: −log10 of the molar value.

Find the measured pEC50 of O=C(CCc1nnc(CCCCc2ccccc2)o1)NCc1cccc(F)c1 and report it.
< 3.52

Find the measured pEC50 of O=C(CCc1ccccc1)Nc1ncc([N+](=O)[O-])s1 and report it.
< 3.52

Find the measured pEC50 of COc1cccc(-c2ccc3nnc(SCC(=O)Nc4ccc(NC(C)=O)cc4)n3n2)c1 and report it.
< 3.52

----------
molecular target: Glycogen synthase kinase-3 beta (Homo sapiens, UniProt P49841); assay: concentration-response blocking of human GSK3B – biochemical, luminescence, cell-free homogeneous, retest, dose response (AID 434954)
pEC50: −log10 of the molar value.
readout name: pEC50

Find the measured pEC50 of O=Cc1cn(-c2ccccc2)nc1-c1ccc(F)cc1 and report it.
< 3.52

Find the measured pEC50 of COc1ccc(-c2cn3c(C)c(C(=O)Nc4ccncc4)sc3n2)cc1 and report it.
< 3.52

Find the measured pEC50 of Cc1ccc(C)c(S(=O)(=O)N2CCN(C(C(=O)Nc3ccc(F)cc3)c3ccccc3)CC2)c1 (stereo unspecified) and report it.
< 3.52

Find the measured pEC50 of Nc1nc(NCCO)nc(NC2CCCCC2)c1[N+](=O)[O-] and report it.
5.87

Find the measured pEC50 of CCCn1c(SCC(=O)Nc2ccccc2OC)nnc1-c1ccco1 and report it.
< 3.52

Find the measured pEC50 of CN1CCc2c(sc3c2c(=O)n(-c2ccccc2)c2n[nH]c(=S)n32)C1 and report it.
4.66

Find the measured pEC50 of Cc1nn(C)c(C(=O)N2CCc3ccccc32)c1Br and report it.
< 3.52

Find the measured pEC50 of Cc1ccccc1C1=NC(C(F)(F)F)(C(F)(F)F)c2c(n(C)c(=O)n(C)c2=O)N1 and report it.
< 3.52

Find the measured pEC50 of COC(=O)Cc1ccc2sc(-c3ccccc3)nc2c1 and report it.
< 3.52

Find the measured pEC50 of C[C@@H]1O[C@@H](Oc2c(-c3cc(O)c(O)c(O)c3)oc3cc(O)cc(=O)c-3c2O)[C@H](O)[C@H](O)[C@H]1O and report it.
< 3.52

Find the measured pEC50 of COC(=O)C(CC(C)C)NC(=O)CSc1nc(-c2ccccc2)c(C#N)c(=O)[nH]1 (stereo unspecified) and report it.
< 3.52

Find the measured pEC50 of Cc1ccc(OCC(=O)N/N=C/c2ccc(O)cc2)c([N+](=O)[O-])c1 and report it.
5.14

Find the measured pEC50 of CCC(CC)NC(=O)COC(=O)c1ccc2c(c1)C(=O)N(Cc1ccco1)C2=O and report it.
< 3.52

Find the measured pEC50 of CC(=O)N1CCc2c(sc(NC(=O)Cc3ccc(F)cc3)c2C(N)=O)C1 and report it.
4.33

Find the measured pEC50 of COc1ccc(N2CCN(CC(O)COc3c(OC)cccc3OC)CC2)cc1 (stereo unspecified) and report it.
< 3.52

Find the measured pEC50 of COc1cc(/C=C/c2nc3ccc([N+](=O)[O-])cc3s2)ccc1OCC(=O)O and report it.
< 3.52

Find the measured pEC50 of COC(=O)COc1ccc2occ(C(C)=O)c2c1 and report it.
< 3.52

Find the measured pEC50 of CCCN(CCC)Cc1c(C(=O)NN=Cc2c[nH]c3ccccc23)nnn1-c1nonc1N and report it.
< 3.52

Find the measured pEC50 of Cn1c(=O)c2[nH]c(CN(Cc3ccccc3)Cc3ccccc3)nc2n(C)c1=O and report it.
< 3.52

Find the measured pEC50 of O=C(NCc1ccncc1)C1CCC(=O)N(CCc2ccc(Cl)cc2)C1 (stereo unspecified) and report it.
< 3.52

Find the measured pEC50 of Cc1ccc2c(c1)N(C(=O)CCC(=O)NCc1ccccc1)CC(C)O2 (stereo unspecified) and report it.
< 3.52
